- assay explanation: Displacement of [3H]flumazenil from GABAA/Benzodiazepine receptor in bovine brain
- Parameters: species or system Bos taurus
test readout: log10 Ki (log10 of the value in nM)
In our notation, the value equals log10 of Ki in nM.

Record excerpt, results attached:
CC(Oc1ccc2c(c1)n1ncc(I)c1n[n+]2[O-])c1ccccc1 (single isomer, unassigned; (-)) :: 0.32
CCOC(=O)c1cnn2c1n[n+]([O-])c1ccc(OCc3ccccc3)cc12 :: 0.32
[O-][n+]1nc2c(I)cnn2c2cc(-c3ccccc3)ccc21 :: 2.98
[O-][n+]1nc2c(Cl)cnn2c2cc(Oc3ccccc3)ccc21 :: 1.63
O=C(OCc1cccs1)c1cnn2c1n[n+]([O-])c1ccc(C(F)(F)F)cc12 :: 1.00
CCCCCCCCOc1ccc2c(c1)n1ncc(I)c1n[n+]2[O-] :: 3.21
[O-][n+]1nc2c(I)cnn2c2cc(OCc3ccccc3OC(F)(F)F)ccc21 :: 0.82
O=C(OCc1cccs1)c1cnn2c1n[n+]([O-])c1ccc(Oc3ccccc3)cc12 :: -0.15

Q: State the recorded log10 Ki for this entry: COc1ccccc1COC(=O)c1ccc2c(c1)n1ncc(Cl)c1n[n+]2[O-]
Result: 0.00

* * *

- assay explanation: Displacement of [3H]flumazenil from GABAA/Benzodiazepine receptor in bovine brain
- Parameters: species or system Bos taurus
test readout: log10 of Ki (log10 of the value in nM)
In our notation, the value equals log10 of Ki in nM.

Record excerpt, results attached:
[O-][n+]1nc2c(I)cnn2c2cc(OCc3ccc(Cl)cc3)ccc21 :: 1.04
CC(Oc1ccc2c(c1)n1ncc(I)c1n[n+]2[O-])c1ccccc1 (racemic) :: 0.53
COc1ccccc1COC(=O)c1ccc2c(c1)n1ncc(C)c1n[n+]2[O-] :: 0.36
[O-][n+]1nc2c(I)cnn2c2cc(Oc3ccccc3)ccc21 :: 0.93
COc1ccccc1COc1ccc2c(c1)n1ncc(I)c1n[n+]2[O-] :: -0.38

Q: State the recorded log10 of Ki for this entry: [O-][n+]1nc2c(I)cnn2c2cc(/C=C/c3ccccc3)ccc21
Result: 3.30

* * *

Reported Activity values follow for various compounds
- Species on record: Bos taurus
- assay explanation: Displacement of [3H]flumazenil from GABAA/Benzodiazepine receptor in bovine brain at 10 uM

Record excerpt, results attached:
Ic1cnn2c1nnc1ccc(OCc3ccccc3)cc12 :: > 80%
CCOc1cnn2c1n[n+]([O-])c1ccc(C(=O)OCc3ccccc3OC)cc12 :: > 80%

Q: State the recorded Activity for this entry: [O-][n+]1nc2c(Br)cnn2c2cc(-c3ccccc3)ccc21
Result: > 80%

* * *

Reported Activity values follow for various compounds
- Species: Bos taurus
- assay explanation: Displacement of [3H]flumazenil from GABAA/Benzodiazepine receptor in bovine brain at 10 uM

Record excerpt, results attached:
Cc1ccc2c(c1)n1ncc(C(=O)OCc3cccs3)c1n[n+]2[O-] :: > 80%
CCOC(=O)c1cnn2c1n[n+]([O-])c1ccc(-c3ccccc3)cc12 :: 40%
[O-][n+]1nc2c(I)cnn2c2cc(OCc3cccs3)ccc21 :: > 80%
COc1ccccc1COC(=O)c1cnn2c1n[n+]([O-])c1ccc(Oc3ccccc3)cc12 :: > 80%

Q: State the recorded Activity for this entry: [O-][n+]1nc2c(I)cnn2c2cc(Oc3ccccc3)ccc21
Result: > 80%
